tested_on: T1, monkey GPC3 on HEK293T-monkey GPC3 cells (monkey)
T1 construct: whole, on cells
protocol_summary: FACS on HEK293T-monkey GPC3 cells
Would you mind classing the entries by Max MFI? Ranges: low-valued: < 30000 MFI; mid-valued: ≥ 30000 MFI and < 40000 MFI; high-valued: ≥ 40000 MFI

Enquiry: Please let me know in which category the item hAb006LH3L1c (antibody, human IgG1, V domains shown, Humanized F3.38.7) VH: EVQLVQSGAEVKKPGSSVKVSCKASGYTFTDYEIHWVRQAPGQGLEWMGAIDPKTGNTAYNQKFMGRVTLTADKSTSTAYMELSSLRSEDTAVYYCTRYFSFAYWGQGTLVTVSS VL: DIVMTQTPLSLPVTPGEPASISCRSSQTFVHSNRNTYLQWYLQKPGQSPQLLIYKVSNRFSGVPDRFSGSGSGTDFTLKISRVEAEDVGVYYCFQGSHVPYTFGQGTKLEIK belongs.
Return: high-valued

Enquiry: Please report the category associated with hAb001H1aL1b (antibody, human IgG1, V domains shown, Humanized F2.169.2) VH: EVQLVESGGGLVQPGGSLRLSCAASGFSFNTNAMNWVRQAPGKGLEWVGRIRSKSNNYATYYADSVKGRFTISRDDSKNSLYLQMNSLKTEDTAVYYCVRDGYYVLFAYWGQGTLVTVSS VL: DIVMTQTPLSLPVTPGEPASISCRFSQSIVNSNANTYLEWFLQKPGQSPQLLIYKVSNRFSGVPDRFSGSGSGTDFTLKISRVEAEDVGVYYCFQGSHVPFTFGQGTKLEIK , nothing else.
Return: mid-valued

Enquiry: Returns: class label. Input: hAb007LH1L1b (antibody, human IgG1, V domains shown, Humanized F3.81.19) VH: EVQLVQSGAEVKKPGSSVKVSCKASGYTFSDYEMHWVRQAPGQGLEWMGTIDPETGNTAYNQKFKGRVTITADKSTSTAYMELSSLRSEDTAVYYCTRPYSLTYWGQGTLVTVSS VL: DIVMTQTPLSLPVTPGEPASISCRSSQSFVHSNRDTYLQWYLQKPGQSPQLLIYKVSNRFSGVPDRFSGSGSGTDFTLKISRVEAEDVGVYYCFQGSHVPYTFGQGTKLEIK
Return: mid-valued

Enquiry: Hi, small favor: classify hAb003LH2L1b (antibody, human IgG1, V domains shown, Humanized F2.154.1) VH: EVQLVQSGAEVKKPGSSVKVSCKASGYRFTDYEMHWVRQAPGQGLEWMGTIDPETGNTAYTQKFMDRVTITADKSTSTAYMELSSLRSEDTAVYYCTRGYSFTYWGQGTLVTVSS VL: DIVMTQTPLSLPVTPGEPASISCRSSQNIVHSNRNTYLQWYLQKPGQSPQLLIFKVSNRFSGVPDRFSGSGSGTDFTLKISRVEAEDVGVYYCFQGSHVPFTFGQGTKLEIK by its Max MFI when you get a moment.
Return: mid-valued

Enquiry: Category of hAb001H1aL1 (antibody, human IgG1, V domains shown, Humanized F2.169.2) VH: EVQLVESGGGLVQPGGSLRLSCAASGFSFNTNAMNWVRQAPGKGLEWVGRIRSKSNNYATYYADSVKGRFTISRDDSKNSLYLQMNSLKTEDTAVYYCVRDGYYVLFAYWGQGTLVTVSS VL: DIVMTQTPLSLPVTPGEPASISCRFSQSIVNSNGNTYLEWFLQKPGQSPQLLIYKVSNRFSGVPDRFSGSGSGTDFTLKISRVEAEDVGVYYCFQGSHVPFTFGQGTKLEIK :
Return: mid-valued

Enquiry: Assign a category based on measured Max MFI for hAb006LH3L1b (antibody, human IgG1, V domains shown, Humanized F3.38.7) VH: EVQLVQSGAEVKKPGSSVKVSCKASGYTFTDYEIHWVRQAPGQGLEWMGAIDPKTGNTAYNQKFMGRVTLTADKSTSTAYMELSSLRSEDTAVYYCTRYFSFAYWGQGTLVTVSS VL: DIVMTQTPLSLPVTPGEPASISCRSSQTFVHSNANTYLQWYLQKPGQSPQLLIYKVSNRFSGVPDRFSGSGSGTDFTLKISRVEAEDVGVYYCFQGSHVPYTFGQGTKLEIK and give only the class name.
Return: mid-valued

Enquiry: Which category fits this record: hAb005LH2L1b (antibody, human IgG1, V domains shown, Humanized F3.54.12) VH: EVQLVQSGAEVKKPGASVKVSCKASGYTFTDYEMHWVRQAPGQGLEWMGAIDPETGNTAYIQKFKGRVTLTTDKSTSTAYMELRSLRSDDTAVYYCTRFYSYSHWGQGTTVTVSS VL: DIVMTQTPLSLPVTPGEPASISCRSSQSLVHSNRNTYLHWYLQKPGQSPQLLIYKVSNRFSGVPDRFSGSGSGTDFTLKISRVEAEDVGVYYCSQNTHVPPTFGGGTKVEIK
Return: low-valued

Enquiry: Which bin should I file hAb007LH1L1c (antibody, human IgG1, V domains shown, Humanized F3.81.19) VH: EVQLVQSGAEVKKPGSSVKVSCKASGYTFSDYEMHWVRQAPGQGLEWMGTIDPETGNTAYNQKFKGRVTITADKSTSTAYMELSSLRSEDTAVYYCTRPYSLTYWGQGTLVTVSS VL: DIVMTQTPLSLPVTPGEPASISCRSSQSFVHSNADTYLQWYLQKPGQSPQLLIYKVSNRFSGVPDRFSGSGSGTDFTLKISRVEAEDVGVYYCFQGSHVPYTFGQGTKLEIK under?
Return: high-valued

Enquiry: State the class of the binder shown: hAb003LH1L1 (antibody, human IgG1, V domains shown, Humanized F2.154.1) VH: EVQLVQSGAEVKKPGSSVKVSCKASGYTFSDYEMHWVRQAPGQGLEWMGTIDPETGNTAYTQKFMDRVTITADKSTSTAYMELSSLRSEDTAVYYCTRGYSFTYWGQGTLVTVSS VL: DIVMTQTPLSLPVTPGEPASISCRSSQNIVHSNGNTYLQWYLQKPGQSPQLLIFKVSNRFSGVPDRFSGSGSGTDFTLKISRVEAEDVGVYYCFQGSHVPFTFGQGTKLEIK
Return: low-valued

Enquiry: Bin this entry: hAb007LH2L1b (antibody, human IgG1, V domains shown, Humanized F3.81.19) VH: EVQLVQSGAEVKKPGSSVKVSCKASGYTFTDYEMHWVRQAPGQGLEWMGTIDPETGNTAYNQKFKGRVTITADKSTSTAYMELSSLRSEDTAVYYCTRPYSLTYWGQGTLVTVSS VL: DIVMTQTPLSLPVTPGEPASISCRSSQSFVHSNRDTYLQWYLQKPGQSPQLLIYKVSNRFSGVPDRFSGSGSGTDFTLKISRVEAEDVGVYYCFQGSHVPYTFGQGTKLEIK
Return: mid-valued
